Test system: OVCAR-4 ovarian
Assay: NCI tumour cell line growth inhibition, 48 h
Measured TGI accompanies every entry in the list below.
RECORDED_ENDPOINT: TGI

COC(=O)C1C(OS(=O)(=O)O)CCC2CN3CCc4c([nH]c5ccccc45)C3CC21 (stereo unspecified) | > 100 µM
ClCc1ccccc1Cn1cnc2c(Cl)nc(Cl)nc21 | 2.55 µM
O=C(/C=C/c1ccc(O)c(O)c1)OCCCOC(=O)/C=C/c1ccc(O)c(O)c1 | > 100 µM
C=C(Cl)C(Cl)(CBr)CCCC(C)(C)Cl (stereo unspecified) | 17 µM
CN(CCCN=C=S)CCCN1c2ccccc2CCc2ccccc21 | 3.56 µM
CC(C)(CNC(=O)/C(Cl)=C(/Cl)C(=O)O)CNC(=O)/C(Cl)=C(/Cl)C(=O)O | > 100 µM
COc1cccc2c1C(=O)c1c(O)c3c(c(O)c1C2=O)C[C@@](O)(C(=O)CO)C[C@@H]3OC1CC2C(OCN3CN2COC2C(C)OC(O[C@H]4C[C@](O)(C(=O)CO)Cc5c(O)c6c(c(O)c54)C(=O)c4c(OC)cccc4C6=O)CC23)C(C)O1 (stereo partly specified) | 5.22 µM
CC(C)(C)OC(=O)NCCC1SC2C=CC1C2 (stereo unspecified) | > 100 µM
Oc1c(Br)cc(Br)c2ccc(Cn3cc(-c4ccc(C(F)(F)F)cc4)nn3)nc12 | 3.11 µM
CCOC(=O)[C@H]1O[C@@H]1C(=O)NC(CC(C)C)C(=O)NCCC(C)C (stereo partly specified) | > 100 µM
O=S(=O)(c1ccc(Cl)cc1)c1ccccc1C1=NCCN1 | > 100 µM
COc1cc(/C=C(\NC(=O)c2ccccc2)c2nc3[nH]c(=S)[nH]c(=O)c3[nH]2)cc(OC)c1OC | > 100 µM
N#CC1(Nc2ccc(Br)cc2)CCCC1 | > 100 µM
Nc1nccc2c1ncn2[C@H]1C[C@H](O)[C@@H](CO)O1 | > 100 µM
O=C1/C(=C\c2cccc(Oc3ccccc3)c2)SC(c2ccccc2)N1c1ccccc1Cl (stereo unspecified) | > 100 µM
Cc1ccc(-n2c(O)c(C=N)c(=O)n(-c3ccc(C)cc3)c2=O)cc1 | > 100 µM

Data provenance is PubChem BioAssay (NCI).
